STUDY_SYSTEM: SARS-CoV-2 NSP3 macrodomain (Mac1) (Severe acute respiratory syndrome coronavirus 2, UniProt P0DTD1)
Type: binding
ASSAY_CONDITIONS: ligand modeling, Mac1 crystal soak

COMPOUND | Number of isomers bound
Cc1ccc(CC(CO)Nc2ncnc3[nH]ccc23)cc1C (centres unmarked) | 2
OCC(CC(F)(F)F)Nc1ncnc2[nH]ccc12 (centres unmarked) | 1
OCC(CN1CCCCC1)Nc1ncnc2[nH]ccc12 (centres unmarked) | 1
O=C(Nc1ccsc1C(=O)O)c1ccc2c(c1)OCO2 | 1
CC1CC(C(=O)O)CCN1C(=O)c1ccc2c(c1)OCC(=O)N2 (centres unmarked) | 1
